Molecular target: T1, FR1exFc (UniProt P11362 22-376, limits assumed)
T1 construct: extracellular domain; also called FGFR1/Fc; FR1/Fc; not shown: Fc part; the construct of FR1exFc is not described
T1 sequence (looked up): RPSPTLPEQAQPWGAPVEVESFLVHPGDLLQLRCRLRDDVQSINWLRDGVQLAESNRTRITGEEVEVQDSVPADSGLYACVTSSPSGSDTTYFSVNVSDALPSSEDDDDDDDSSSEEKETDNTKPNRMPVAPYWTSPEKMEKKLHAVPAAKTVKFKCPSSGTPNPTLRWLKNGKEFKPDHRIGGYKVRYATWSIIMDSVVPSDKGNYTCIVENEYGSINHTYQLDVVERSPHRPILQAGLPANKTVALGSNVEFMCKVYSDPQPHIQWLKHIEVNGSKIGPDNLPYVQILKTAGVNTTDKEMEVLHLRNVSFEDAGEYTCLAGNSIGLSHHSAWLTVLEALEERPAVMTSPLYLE
Experiment: Affinity to FGFR1 (BIACORE and/or FACS)
Outcome Measure: pKd
Give bare numbers, as −log10 of the molar value.

Please report the recorded pKd for MSPRO26 (Fab, V domains shown) VH: QVQLVQSGAEVKKPGASVKVSCKASGYTFTSYYMHWVRQAPGQGLEWMGWINPNSGGTNYAQKFQGRVTMTRDTSISTAYMELSSLRSEDTAVYYCARGYWYAYFTYINYGYFDNWGQGTLVTVSS VL: DIALTQPASVSGSPGQSITISCTGTSSDVGGYNYVSWYQQHPGKAPKLMIYDVSNRPSGVSNRFSGSKSGNTASLTISGLQAEDEADYYCQSYDNNSDVVFGGGTKLTVLG .
7.49

Recorded values, source patent US20090202547A1.
